System: large crabgrass
Assay: Test A pre-/postemergence herbicide test
Assay type: in vivo, Digitaria sanguinalis
Settings: Postemergence, 2000 g ai/ha; 0 to 100 scale, 0 no effect, 100 complete control
In this section, each of the compounds is paired with its reported Plant response rating, Crabgrass, Large.
Endpoint name: Plant response rating, Crabgrass, Large

>>> assay_value("CC(=NO)c1cccc(NC(=O)c2cc(C(F)(F)F)nn2C)c1")
30
>>> assay_value("CCNC(=O)c1ccc(F)c(NC(=O)c2cc(C(C)(C)C)nn2CC)n1")
5
>>> assay_value("CCNC(=O)c1ccc(F)c(NC(=O)c2cc(C3(C)CC3)nn2CC)c1")
90
>>> assay_value("C#CCNC(=O)c1cncc(NC(=O)c2cc(C(C)(C)C)nn2CC)n1")
20

====

Tested on: large crabgrass
Assay: Test B pre-/postemergence herbicide test
Type: in vivo, Digitaria sanguinalis
Details: postemergence, 500 g ai/ha; visual rating, scale 0 (no effect) to 100 (complete control)
Endpoint name: Crabgrass, Large plant response rating

>>> assay_value("CCc1nc(C(C)(C)C)sc1C(=O)Nc1cccc(C(=O)N(C)CC)c1 [Compound 229]")
20
>>> assay_value("CC(=O)c1cccc(NC(=O)c2cc(C(C)(C)C)nn2CCF)c1 [Compound 128]")
20
>>> assay_value("CCc1nc(C(C)(C)C)sc1C(=O)Nc1cccc(C(=O)NCCF)c1 [Compound 209]")
20
>>> assay_value("CCOC(=O)c1cccc(NC(=O)c2sc(C(C)(C)C)nc2CC)c1 [Compound 204]")
10
>>> assay_value("Cn1nc(C(C)(C)C)cc1C(=O)Nc1cccc(C#N)c1 [Compound 121]")
10
>>> assay_value("CCNC(=O)c1ccc(F)c(NC(=O)c2cn(C(C)(C)C)nc2CC)c1 [Compound 193]")
10
>>> assay_value("CCNC(=O)c1cccc(NC(=O)c2nn(C(C)(C)C)cc2C(F)(F)F)c1 [Compound 170]")
10
>>> assay_value("CCc1nc(C(C)(C)C)sc1C(=O)Nc1cccc(C(=O)NCC2CC2)c1 [Compound 212]")
10
>>> assay_value("CCn1nc(C(C)(C)C)cc1C(=O)Nc1cc(C(=O)NCC2CC2)ccn1 [Compound 155]")
40
>>> assay_value("CCc1nc(C(C)(C)C)sc1C(=O)Nc1cccc(C(=O)NC(C)(C)C)n1 [Compound 216]")
0
>>> assay_value("CCc1nc(C(C)(C)C)sc1C(=O)Nc1cc(C(=O)N(C)C)ccc1F [Compound 225]")
20

====

In this section, each of the molecules is paired with its reported Plant response rating, Crabgrass, Large.
Test system: large crabgrass
Experiment: Test B pre-/postemergence herbicide test
Assay type: in vivo, Digitaria sanguinalis
Details: Postemergence, 500 g ai/ha; visual rating after 13 to 15 days, scale 0 (no effect) to 100 (complete control)
Endpoint name: Plant response rating, Crabgrass, Large

>>> assay_value("C=CCn1nc(C(C)(C)C)cc1C(=O)Nc1cccc(C(=O)NCC)c1")
20
>>> assay_value("CON=C(C)c1cccc(NC(=O)c2cc(C(C)(C)C)nn2C)c1")
10
>>> assay_value("CCOC(=O)c1cc(NC(=O)c2cc(C(C)(C)C)nn2CC)ccc1F")
20
>>> assay_value("CCN1CCc2c(NC(=O)c3cc(C(C)(C)C)nn3CC)cccc2C1=O")
20
>>> assay_value("CC(=NO)c1cccc(NC(=O)c2cc(C(C)(C)C)nn2C)c1")
0
>>> assay_value("CCn1nc(C(C)(C)C)cc1C(=O)Nc1cccc(C(=O)NCCF)c1")
30
>>> assay_value("CCn1nc(C(C)(C)C)cc1C(=O)Nc1cc(C(=O)OC(C)(C)C)ccc1F")
10
>>> assay_value("CCNC(=O)c1cccc(NC(=O)c2cc(C(C)(C)C)nn2CCF)c1")
20

====

In this section, each of the compounds is paired with its reported Plant response rating, Ducksalad.
Test system: ducksalad
Assay: Test C flooded paddy test
Type: in vivo, Heteranthera limosa
Settings: 500 g ai/ha, visual rating after 12 to 14 days, scale 0 to 100 (0 no effect, 100 complete control)
Endpoint name: Plant response rating, Ducksalad

>>> assay_value("CCc1nn(C(C)C)nc1C(=O)Nc1cccc(C(=O)N(C)CC)c1")
85
>>> assay_value("CCNC(=O)c1ccc(F)c(NC(=O)c2cc(C3(C)CC3)nn2CC)c1")
90
>>> assay_value("CCOc1cccc(NC(=O)c2cc(C(C)(C)C)nn2CC)c1")
90
>>> assay_value("CCNC(=O)c1cccc(NC(=O)c2cc(C(C)(C)C)nn2CC(F)(F)F)c1")
60

====

Test system: morningglory
Experiment: Test A pre-/postemergence herbicide test
Type: in vivo, Ipomoea spp.
Details: preemergence, 500 g ai/ha; visual injury, 0 to 100 scale (0 no effect, 100 complete control)
Endpoint name: Morningglory plant response rating

>>> assay_value("CCNC(=O)c1ccc(F)c(NC(=O)c2cc(C(C)(C)C)nn2CC)n1 [Compound 278]")
10
>>> assay_value("CCN(C(C)=O)C(=O)c1ccc(F)c(NC(=O)c2cc(C(C)(C)C)nn2CC)c1 [Compound 413]")
5
>>> assay_value("CC(=NO)c1cccc(NC(=O)c2cc(C(C)(C)C)n[nH]2)c1 [Compound 311]")
0
>>> assay_value("CCNC(=O)c1ccc(F)c(NC(=O)c2nc(C(C)(C)C)nn2CC)c1 [Compound 447]")
0
>>> assay_value("C#CCNC(=O)c1ccc(F)c(NC(=O)c2cc(C(C)(C)C)nn2CC)n1 [Compound 279]")
10
>>> assay_value("CCc1nc(C(C)(C)C)sc1C(=O)Nc1cccc(C(=O)NC(C)(C)C)n1 [Compound 216]")
0
>>> assay_value("CCn1nc(C(C)(C)C)cc1C(=O)Nc1ccnc(C(=O)N2CC=CC2)c1 [Compound 282]")
10
>>> assay_value("CC(=O)c1cccc(NC(=O)c2sc(C(C)(C)C)nc2C)c1 [Compound 196]")
0
>>> assay_value("CCNC(=O)c1cccc(NC(=O)c2nn(C3CCCC3)nc2CC)c1 [Compound 356]")
5

====

Test system: giant foxtail
Test: Test B pre-/postemergence herbicide test
Format: in vivo, Setaria faberi
Conditions: postemergence, 500 g ai/ha; visual rating, scale 0 (no effect) to 100 (complete control)
Endpoint name: Foxtail, Giant plant response rating

>>> assay_value("CCn1nc(C(C)(C)C)cc1C(=O)Nc1cc(C(=O)NC(C)(C)C)ccn1 [Compound 154]")
20
>>> assay_value("CCOc1cccc(NC(=O)c2cn(C(C)(C)C)nc2C)c1 [Compound 190]")
10
>>> assay_value("CCc1nn(C(C)(C)C)cc1C(=O)Nc1cc(C(=O)N(C)CC)ccc1F [Compound 224]")
30
>>> assay_value("CCOc1cccc(NC(=O)c2cc(C(C)(C)C)nn2CC)c1 [Compound 136]")
10
>>> assay_value("CCN(CC)C(=O)c1cccc(NC(=O)c2nn(C(C)(C)C)cc2Cl)c1 [Compound 218]")
0

====

Tested on: kochia
Assay: Test C pre-/postemergence herbicide test
Format: in vivo, Kochia scoparia
Conditions: 62 g ai/ha; preemergence; scale 0 to 100
In this section, each of the molecules is paired with its reported Plant response rating, Kochia.
Endpoint name: Plant response rating, Kochia

>>> assay_value("CCNC(=S)c1cccc(NC(=O)c2nn(C(C)(C)C)nc2C)c1 [Compound 420]")
70
>>> assay_value("CCc1nn(C(C)C)nc1C(=O)Nc1cccc(C(=O)N(C)CC)c1 [Compound 386]")
30
>>> assay_value("CCNC(=O)c1ccc(F)c(NC(=O)C2CC(C(C)(C)C)=NN2CC)c1 (racemic) [Compound 269]")
70
>>> assay_value("CCn1nc(C(C)(C)C)cc1C(=O)Nc1ccc(OC)c(OC)c1 [Compound 298]")
80
>>> assay_value("CCNC(=O)c1ccc(F)c(NC(=O)c2cn(C(C)(C)C)nc2CC)c1 [Compound 193]")
85

====

System: barnyardgrass
Assay: Test C flooded paddy test
Type: in vivo, Echinochloa crus-galli
Details: 125 g ai/ha, scale of 0 to 100, 0 is no effect, 100 is complete control
Endpoint name: Barnyardgrass plant response rating

>>> assay_value("CCNC(=O)c1cccc(NC(=O)c2cc(C(C)(C)C)nn2CC)n1")
20
>>> assay_value("CCNC(=O)c1cccc(NC(=O)c2cc(C(C)(C)C)nn2CC(F)(F)F)c1")
30
>>> assay_value("CCn1nc(C(C)(C)C)cc1C(=O)Nc1cccc(C(=O)NC(C)C)c1")
0
>>> assay_value("CCn1nc(C(C)(C)C)cc1C(=O)Nc1ccc(OC)c(C(=O)OC(C)C)c1")
20

====

Test system: barnyardgrass
Experiment: Test A pre-/postemergence herbicide test
Format: in vivo, Echinochloa crus-galli
Conditions: Postemergence, 500 g ai/ha; 0 to 100 scale, 0 no effect, 100 complete control
From the text: […] Plants ranged in height from 2 to 10 cm and were in the one- to two-leaf stage for the postemergence treatment. Treated plants and untreated controls were maintained in a greenhouse for approximately ten days, after which time all treated plants were compared to untreated controls and visually evaluated for injury. […]
Endpoint name: Barnyardgrass plant response rating

>>> assay_value("Cn1nc(C(C)(C)C)cc1C(=O)Nc1cccc(C#N)c1 [Compound 121]")
10
>>> assay_value("CCc1nc(C(C)(C)C)sc1C(=O)Nc1cccc(C(=O)NC(C)(C)C)n1 [Compound 216]")
0
>>> assay_value("CC(=NO)c1cccc(NC(=O)c2cc(C(C)(C)C)nn2C)c1 [Compound 107]")
20
>>> assay_value("CC(=NO)c1cccc(NC(=O)c2cn(C(C)C)nc2C)c1 [Compound 180]")
20
>>> assay_value("C#CCNC(=O)c1cccc(NC(=O)c2cc(C(C)(C)C)nn2CC)n1 [Compound 147]")
55
>>> assay_value("Cc1nn(C(C)(C)C)cc1C(=O)Nc1cccc(OC(C)C)c1 [Compound 189]")
0
>>> assay_value("C#CCNC(=O)c1ccc(F)c(NC(=O)c2cc(C(C)(C)C)nn2CC)n1 [Compound 279]")
20
>>> assay_value("CCn1nc(C(C)(C)C)cc1C(=O)Nc1ccnc(C(=O)N2CC=CC2)c1 [Compound 282]")
40
>>> assay_value("CCn1nc(C(C)(C)C)cc1C(=O)Nc1cc(OC(F)(F)F)ccc1F [Compound 338]")
20
